Assay Details: Cytotoxicity, L929 fibroblasts
Assay type: cell-based, mouse
Condition Notes: mouse
pIC50: −log10 of the molar value.
Each entry below lists one item and its recorded pIC50 value.

O=C(COc1ccc(-c2cc(=O)c3ccccc3o2)cc1)N1CCN(C(=O)c2ccncc2)CC1	< 4.00
O=C(NCCOCCOc1ccc(-c2cc(=O)c3ccccc3o2)cc1)c1ccncc1	< 4.00
O=c1cc(-c2ccc(OCCOCCN(Cc3ccc4ccccc4n3)Cc3ccc4ccccc4n3)cc2)oc2ccccc12 [FM09l]	< 4.00
O=C(COc1ccc(-c2cc(=O)c3ccccc3o2)cc1)N1CCCNCC1	< 4.48
O=C(COc1ccc(-c2cc(=O)c3ccccc3o2)cc1)N1CCN(Cc2ccncc2)CC1	< 4.00

Ask | Requested field: pIC50. Item: O=c1cc(-c2ccc(OCCOCCNCc3ccccc3)cc2)oc2ccccc12
Reply | < 4.48

Ask | // lookup pIC50 for O=c1cc(-c2ccc(OCCOCCNCc3ccncc3)cc2)oc2ccccc12
Reply | < 4.48

Ask | Fill in: pIC50 of O=c1cc(-c2ccc(OCCOCCN(Cc3ncccn3)Cc3ncccn3)cc2)oc2ccccc12 [FM09d] is ___
Reply | < 4.00

----------
Test system: L. amazonensis LV78 promastigotes
Assay Details: Anti-promastigote activity (MTS assay), L. amazonensis LV78
Format: cell-based
Condition Notes: Leishmania amazonensis, 72 hours
pIC50: −log10 of the molar value.
Each entry falls into one class according to its pIC50; the ranges are low (below 5), moderate (5 to below 6), high (6 or more)

O=c1cc(-c2ccc(OCC3CCN(Cc4ccncc4)CC3)cc2)oc2ccccc12	moderate
COc1ccnc(CN2CCC(CCOc3ccc(-c4cc(=O)c5ccccc5o4)cc3)CC2)c1OC [FM05b]	high
Cc1c(OCC(F)(F)F)ccnc1CN(CCOCCOc1ccc(-c2cc(=O)c3ccccc3o2)cc1)Cc1nccc(OCC(F)(F)F)c1C [FM09h]	high
NCCOCCOc1ccc(-c2cc(=O)c3ccccc3o2)cc1	low

Ask | Field: class (pIC50) — entry: O=c1cc(-c2ccc(OCCC3CCN(Cc4ccccn4)CC3)cc2)oc2ccccc12 [FM05a]
Reply | moderate

Ask | // return the class label for O=C(COc1ccc(-c2cc(=O)c3ccccc3o2)cc1)N1CCCNCC1
Reply | low

----------
Measured IC50 accompanies every entry in the list below.
Tested on: L. donovani Ld39 promastigotes
Assay Details: Anti-promastigote activity (MTS assay), L. donovani Ld39
Type: cell-based
Condition Notes: Leishmania donovani, 72 hours
Output spec: scalar in nM, unitless text.

CCCCCCCCCCCCCCCCOP(=O)([O-])OCC[N+](C)(C)C [Miltefosine, reference compound]	17300
O=c1cc(-c2ccc(OC[C@@H]3CCCN3Cc3ccncc3)cc2)oc2ccccc12	2700

Ask | Fill blank: measured IC50 of the compound O=c1cc(-c2ccc(OCCOCCNCc3ccccc3)cc2)oc2ccccc12 is ____.
Reply | 2600

----------
The reader will find reported IC50 values listed item by item below.
Assay Details: Cytotoxicity, L929 fibroblasts
Assay type: cell-based, mouse
Condition Notes: mouse

Worked cases, IC50 given:
CN(C)CCOCCOc1ccc(-c2cc(=O)c3ccccc3o2)cc1 [FM06]	> 33 µM
O=c1cc(-c2ccc(OCC3CCN(Cc4ccncc4)CC3)cc2)oc2ccccc12 [FM13]	> 100 µM
O=c1cc(-c2ccc(OCCN3CCN(Cc4ccncc4)CC3)cc2)oc2ccccc12 [FM01]	> 33 µM
O=c1cc(-c2ccc(OCCOCCN(Cc3ccccn3)Cc3ccccn3)cc2)oc2ccccc12 [FM09]	> 33 µM
O=C(COc1ccc(-c2cc(=O)c3ccccc3o2)cc1)N1CCNCC1 [FM10]	> 33 µM

Ask | Requested field: IC50. Item: O=c1cc(-c2ccc(OCCC3CCCCN3Cc3ccncc3)cc2)oc2ccccc12 (stereo not shown) [FM17]
Reply | > 100 µM

Ask | Item under review: O=c1cc(-c2ccc(OCCC3CCN(Cc4ccncc4)CC3)cc2)oc2ccccc12 [FM05] . Reported IC50?
Reply | > 100 µM
